Data credit: patent US20040063662A1

- Test system: MCF7
- protocolNotes: NCI human tumor cell panel: MCF7 (Breast Cancer)
- Type: cell-based
- conditionDetails: MCF7, Breast Cancer, read-out: Log10 GI50 (converted)
Provide the recorded GI50 for the entries that follow.
Give bare numbers, in nM.

>>> df
                                   molecule  testreadout  measvalue
0  O=Cc1ccc(-c2ccc(-c3ccc[se]3)[se]2)[se]1 [NSC 675244]         GI50        479
1  OCc1ccc(-c2ccc(-c3cccs3)[se]2)s1 [NSC 675344]         GI50        126
2  O=Cc1ccc(-c2ccc(-c3cccs3)[se]2)s1 [NSC 675346]         GI50        813
3  O=Cc1ccc(-c2ccc(-c3ccc(C=O)[se]3)[se]2)[se]1 [NSC 675245]         GI50       1480
4  O=Cc1ccc(-c2ccc(-c3ccc(C=O)[se]3)s2)[se]1 [NSC 676630]         GI50        676

Now consider the entry below.
Reported MCF7 GI50 for item O=Cc1ccc(-c2ccc(-c3ccc(C=O)s3)[se]2)s1 [NSC 675345] was 724

----------
- Test system: MALME-3M
- protocolNotes: NCI human tumor cell panel: MALME-3M (Melanoma)
- Assay type: cell-based
- conditionDetails: MALME-3M, Melanoma, read-out: Log10 TGI (converted)
Provide the recorded IC (TGI) for the entries that follow.

Consider the following illustrative entries.
>>> print(df.to_string())
                                 chemsmiles  measvalue
0         O=Cc1ccc(-c2ccc(-c3cccs3)[se]2)s1   > 100 µM
1  O=Cc1ccc(-c2ccc(-c3ccc(C=O)[se]3)[se]2)[se]1   > 100 µM
2  O=Cc1ccc(-c2ccc(-c3ccc(C=O)[se]3)s2)[se]1   > 100 µM
3   O=Cc1ccc(-c2ccc(-c3ccc[se]3)[se]2)[se]1    28.2 µM
4          OCc1ccc(-c2ccc(-c3cccs3)[se]2)s1   > 100 µM

Now consider the entry below.
Reported MALME-3M IC (TGI) for item O=Cc1ccc(-c2ccc(-c3ccc(C=O)s3)[se]2)s1 was > 100 µM

----------
- Tested on: OVCAR-4
- protocolNotes: NCI human tumor cell panel: OVCAR-4 (Ovarian Cancer)
- Type: cell-based
- conditionDetails: OVCAR-4, Ovarian Cancer, read-out: Log10 TGI (converted)
testReadout: IC (TGI) (µM)
One number for each entry, in µM.

                          chemsmiles  subjectoftest  testreadout  measvalue
0  O=Cc1ccc(-c2ccc(-c3cccs3)[se]2)s1        OVCAR-4     IC (TGI)       26.9

Now consider the entry below.
O=Cc1ccc(-c2ccc(-c3ccc[se]3)[se]2)[se]1 yielded IC (TGI) of 14.8

----------
- System: UO-31
- protocolNotes: NCI human tumor cell panel: UO-31 (Renal Cancer)
- Assay type: cell-based
- conditionDetails: UO-31, Renal Cancer, read-out: Log10 GI50 (converted)
testReadout: GI50

Consider the following illustrative entries.
In [3]: df
Out[3]:
                                 chemsmiles  measvalue
0          OCc1ccc(-c2ccc(-c3cccs3)[se]2)s1   > 100 µM
1   O=Cc1ccc(-c2ccc(-c3ccc[se]3)[se]2)[se]1    15.5 µM
2  O=Cc1ccc(-c2ccc(-c3ccc(C=O)[se]3)s2)[se]1   > 100 µM
3         O=Cc1ccc(-c2ccc(-c3cccs3)[se]2)s1    35.5 µM

Now consider the entry below.
O=Cc1ccc(-c2ccc(-c3ccc(C=O)[se]3)[se]2)[se]1 yielded GI50 of > 100 µM

----------
- System: DU-145
- protocolNotes: NCI human tumor cell panel: DU-145 (Prostate Cancer)
- Type: cell-based
- conditionDetails: DU-145, read-out: Log10 GI50 (converted)
Returns: string. Value is Met if measured GI50 is below 20 µM, and Not met if it is greater than or equal to it.

                                   compound    class
0  OCc1ccc(-c2ccc(-c3ccc[se]3)[se]2)[se]1 [compound 675246]      Met
1  OCc1ccc(-c2ccc(-c3ccc(CO)s3)[se]2)s1 [compound 675343]  Not met
2  OCc1ccc(-c2ccc(-c3ccc(CO)[se]3)s2)s1 [compound 688830]  Not met
3  OCc1ccc(-c2ccc(-c3ccc(CO)[se]3)s2)[se]1 [compound 676632]  Not met
4  O=Cc1ccc(-c2ccc(-c3ccc(C=O)[se]3)s2)s1 [compound 688829]  Not met

stdin: Just wondering, is GI50 of OCc1ccc(-c2ccc(-c3ccc(CO)[se]3)[se]2)[se]1 [compound 675247] below 20 µM?
stdout: Met

----------
Provide the recorded IC (TGI) for the entries that follow.
- Test system: SNB-75
- protocolNotes: NCI human tumor cell panel: SNB-75 (CNS Cancer)
- Assay type: cell-based
- conditionDetails: SNB-75, read-out: Log10 TGI (converted)

Consider the following illustrative entries.
>>> print(df.to_string())
                                 chemsmiles  subjectoftest  measvalue
0    O=Cc1ccc(-c2ccc(-c3ccc(C=O)[se]3)s2)s1         SNB-75   > 100 µM
1      OCc1ccc(-c2ccc(-c3ccc(CO)[se]3)s2)s1         SNB-75   > 100 µM
2    OCc1ccc(-c2ccc(-c3ccc[se]3)[se]2)[se]1         SNB-75   > 100 µM
3   OCc1ccc(-c2ccc(-c3ccc(CO)[se]3)s2)[se]1         SNB-75   > 100 µM
4  OCc1ccc(-c2ccc(-c3ccc(CO)[se]3)[se]2)[se]1         SNB-75    38.9 µM

OCc1ccc(-c2ccc(-c3ccc[se]3)s2)[se]1 yielded IC (TGI) of > 100 µM

----------
- Tested on: HCC-2998
- protocolNotes: NCI human tumor cell panel: HCC-2998 (Colon Cancer)
- Type: cell-based
- conditionDetails: HCC-2998, Colon Cancer, read-out: Log10 TGI (converted)
Provide the recorded IC (TGI) for the entries that follow.

>>> print(df.to_string())
                                 chemsmiles  measvalue
0  O=Cc1ccc(-c2ccc(-c3ccc(C=O)[se]3)s2)[se]1    85.1 µM
1  O=Cc1ccc(-c2ccc(-c3ccc(C=O)[se]3)[se]2)[se]1   > 100 µM
2          OCc1ccc(-c2ccc(-c3cccs3)[se]2)s1    1.62 µM

Dear colleague, could you please provide IC (TGI) for the molecules listed below?
1. O=Cc1ccc(-c2ccc(-c3ccc(C=O)s3)[se]2)s1
2. O=Cc1ccc(-c2ccc(-c3ccc[se]3)[se]2)[se]1

stdout:
["6.92 µM", "11.5 µM"]

----------
Provide the recorded IC (TGI) for the entries that follow.
- System: SF-268
- protocolNotes: NCI human tumor cell panel: SF-268 (CNS Cancer)
- Format: cell-based
- conditionDetails: SF-268, CNS Cancer, read-out: Log10 TGI (converted)

In [3]: df
Out[3]:
                                   compound  measvalue
0  O=Cc1ccc(-c2ccc(-c3ccc(C=O)s3)[se]2)s1 [NSC 675345]   > 100 µM
1  O=Cc1ccc(-c2ccc(-c3ccc(C=O)[se]3)s2)[se]1 [NSC 676630]   > 100 µM

Dear colleague, could you please provide IC (TGI) for the compounds listed below?
1. OCc1ccc(-c2ccc(-c3cccs3)[se]2)s1 [NSC 675344]
2. O=Cc1ccc(-c2ccc(-c3ccc[se]3)[se]2)[se]1 [NSC 675244]
3. O=Cc1ccc(-c2ccc(-c3ccc(C=O)[se]3)[se]2)[se]1 [NSC 675245]
4. O=Cc1ccc(-c2ccc(-c3cccs3)[se]2)s1 [NSC 675346]

stdout:
> 100 µM
57.5 µM
> 100 µM
> 100 µM

----------
Provide the recorded log10 of GI50 for the entries that follow.
- System: human renal carcinoma cells (A-498)
- protocolNotes: Selective cytotoxicity microculture assay, human renal carcinoma
- conditionDetails: Homo sapiens, A498, A-498 human renal carcinoma
Recall that a logarithmic scale is used here: each number is log10 of GI50 in µg/mL.

Consider the following illustrative entries.
                                chemsmiles                        subjectoftest    testreadout  measvalue
0   OCc1ccc(-c2ccc(-c3ccc[se]3)[se]2)[se]1  human renal carcinoma cells (A-498)  log10 of GI50      -5.52
1  OCc1ccc(-c2ccc(-c3ccc(CO)[se]3)s2)[se]1  human renal carcinoma cells (A-498)  log10 of GI50      -6.52
2           c1csc(-c2ccc(-c3cccs3)[se]2)c1  human renal carcinoma cells (A-498)  log10 of GI50       1.48
3     c1c[se]c(-c2ccc(-c3ccc[se]3)[se]2)c1  human renal carcinoma cells (A-498)  log10 of GI50       0.48
4     c1c[se]c(-c2ccc(-c3ccc[se]3)[nH]2)c1  human renal carcinoma cells (A-498)  log10 of GI50       2.00

Now consider the entry below.
c1c[se]c(-c2ccc(-c3ccc[se]3)s2)c1 yielded log10 of GI50 of 1.90
